Where do the numbers come from? From patent US20240417393A1.

TARGET UNDER TEST: GLP-1R in a pancreatic insulinoma cell line (EndoC-PH1) (Homo sapiens, UniProt P43220)
Sequence (P43220 24-463): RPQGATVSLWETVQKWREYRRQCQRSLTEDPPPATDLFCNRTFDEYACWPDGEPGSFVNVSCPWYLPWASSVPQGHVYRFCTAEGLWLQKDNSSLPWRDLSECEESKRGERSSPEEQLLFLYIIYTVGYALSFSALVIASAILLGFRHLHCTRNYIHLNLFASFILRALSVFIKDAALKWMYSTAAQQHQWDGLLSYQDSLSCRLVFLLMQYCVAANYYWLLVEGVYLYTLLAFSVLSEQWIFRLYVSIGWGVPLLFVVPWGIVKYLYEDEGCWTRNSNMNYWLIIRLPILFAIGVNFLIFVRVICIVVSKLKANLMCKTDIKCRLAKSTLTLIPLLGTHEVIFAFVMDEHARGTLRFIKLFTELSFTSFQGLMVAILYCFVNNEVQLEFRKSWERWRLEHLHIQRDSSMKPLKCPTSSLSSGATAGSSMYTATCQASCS
PROTOCOL: EndoC cAMP Accumulation Assay (HTRF)
STUDY CONDITIONS: EndoC-PH1 human pancreatic beta cell line, endogenous GLP-1R, 30 min at rt
READOUT LABEL: EC50 (nM)

// known answers, use as guide
C[C@]1(c2ccc(Cl)cn2)Oc2cccc(N3CCN(Cc4nc5c(F)cc(C(=O)O)cc5n4CC4(CC#N)CC4)[C@H]4CC[C@@H]43)c2O1 (single isomer, unassigned) [Example 23b]	85
CCn1ccnc1Cn1c(CN2CCN(c3cccc4c3O[C@@](C)(c3ccc(Cl)cn3)O4)[C@H]3CC[C@@H]32)nc2c(Cl)cc(C(=O)O)cc21 (single isomer, unassigned) [Example 10c]	1000
C[C@]1(c2ccc(Cl)cc2F)Oc2cccc(N3CCN(Cc4nc5c(F)cc(C(=O)O)cc5n4C[C@@H]4CCO4)[C@H]4CC[C@H]43)c2O1 (relative stereo) [Example 9d]	4.3

A. C[C@]1(c2ccc(Cl)cc2F)Oc2cccc(N3CCN(Cc4nc5c(F)cc(C(=O)O)cc5n4C[C@@H]4CCO4)[C@H]4CC[C@H]43)c2O1 (single isomer, unassigned) [Example 9a]
B. C[C@]1(c2ccc(Cl)cc2F)Oc2cccc(N3CCN(Cc4nc5ccc(C(=O)O)cc5n4C[C@@H]4CCO4)[C@H]4CC[C@@H]43)c2O1 (single isomer, unassigned) [Example 21b]
Please let me know which one, A or B , has a lower measured EC50 value. # reply format: chosen label
A

---

TARGET UNDER TEST: GLP-1R in a pancreatic insulinoma cell line (EndoC-PH1) (Homo sapiens)
PROTOCOL: EndoC cAMP Accumulation Assay (HTRF)
STUDY CONDITIONS: EndoC-PH1 human pancreatic beta cell line, endogenous GLP-1R, 30 min at rt
pEC50: −log10 of the molar value.
READOUT LABEL: pEC50

COc1cc(C(=O)O)cc2c1nc(CN1CCN(c3cccc4c3O[C@@](C)(c3ccc(Cl)cn3)O4)[C@H]3CC[C@@H]31)n2CC1(C#N)CC1 (single isomer, unassigned) [Example 25d]	7.13
C[C@]1(c2ccc(Cl)cn2)Oc2cccc(N3CCN(Cc4nc5c(Cl)cc(C(=O)O)cc5n4C[C@@H]4CCO4)[C@H]4CC[C@H]43)c2O1 (single isomer, unassigned) [Example 20c]	8.66
COc1cc(C(=O)O)cc2c1nc(CN1CCN(c3cccc4c3O[C@@](C)(c3ccc(Cl)cn3)O4)[C@H]3CC[C@@H]31)n2C[C@@H]1CCCO1 (single isomer, unassigned) [Example 7a]	7.14
CCn1ccnc1Cn1c(CN2CCN(c3cccc4c3O[C@@](C)(c3ccc(Cl)cn3)O4)[C@H]3CC[C@@H]32)nc2c(Cl)cc(C(=O)O)cc21 (single isomer, unassigned) [Example 10b]	7.12

P. C[C@]1(c2ccc(Cl)cn2)Oc2cccc(N3CCN(Cc4nc5c(F)cc(C(=O)O)cc5n4C[C@@H]4CCO4)[C@H]4CC[C@H]43)c2O1 (single isomer, unassigned) [Example 1a]
Q. C[C@]1(c2ccc(Cl)cn2)Oc2cccc(N3CCN(Cc4nc5c(F)cc(C(=O)O)cc5n4CC4(C#N)CC4)[C@H]4CC[C@@H]43)c2O1 (single isomer, unassigned) [Example 24a]
P or Q : whose pEC50 is greater? # reply format: chosen label
Q

A. C[C@]1(c2ccc(Cl)cn2)Oc2cccc(N3CCN(Cc4nc5c(F)cc(C(=O)O)cc5n4CC4(CC#N)CC4)[C@H]4CC[C@@H]43)c2O1 (single isomer, unassigned) [Example 23c]
B. C[C@]1(c2ccc(Cl)cn2)Oc2cccc(N3CCN(Cc4nc5ccc(C(=O)O)cc5n4C[C@@H]4CCO4)[C@H]4CC[C@H]43)c2O1 (single isomer, unassigned) [Example 5c]
Please let me know which one, A or B , has a lower measured pEC50 value. # reply format: chosen label
B

P. C[C@]1(c2ccc(Cl)cn2)Oc2cccc(N3CCN(Cc4nc5c(Cl)cc(C(=O)O)cc5n4C[C@@H]4CCO4)[C@H]4CC[C@@H]43)c2O1 (single isomer, unassigned) [Example 3c]
Q. C[C@]1(c2ccc(Cl)cn2)Oc2cccc(N3CCN(Cc4nc5c(Cl)cc(C(=O)O)cc5n4CC4(CC#N)CC4)[C@H]4CC[C@@H]43)c2O1 (single isomer, unassigned) [Example 26b]
Please let me know which one, P or Q , has a lower measured pEC50 value. # reply format: chosen label
P
